- System: grapes (Vitis labrusca L.)
- TEST DETAILS: Volatility evaluation: injury to grapes from vapor exposure
- RECORDED CONDITIONS: wheat sprayed at 11200 g ae/ha, 24 hour vapor exposure at 40° C., evaluated 7 days after exposure
VALUE TYPE: % Injury to grapes from vapor exposure
Give the figure together with its unit, number first.

Take a look at these entries with their results.
INSERT INTO results (molecule, value_type, test_value) VALUES
  ('CNC.O=C(O)COc1ccc(Cl)cc1Cl [2,4-D dimethylamine (DMA), 2,4-D dimethylamine, reference compound]', '% Injury to grapes from vapor exposure', '78%'),
  ('COc1c(Cl)ccc(Cl)c1C(=O)[O-].C[N+](C)(C)C', '% Injury to grapes from vapor exposure', '12%'),
  ('CCN(CC)CC.O=C(O)COc1nc(Cl)c(Cl)cc1Cl [Triclopyr triethylamine (TEA), Triclopyr triethylamine, reference compound]', '% Injury to grapes from vapor exposure', '57%'),
  ('CCCCOCCOC(=O)COc1ccc(Cl)cc1Cl', '% Injury to grapes from vapor exposure', '100%'),
  ('CC[N+](CC)(CC)CC.O=C([O-])COc1nc(Cl)c(Cl)cc1Cl', '% Injury to grapes from vapor exposure', '6%');

# input Form field - read-out: % Injury to grapes from vapor exposure; system: grapes (Vitis labrusca L.); submitted item: `CC[N+](CC)(CC)CC.O=C([O-])COc1ccc(Cl)cc1Cl`
# output 0%
